# credit: PubChem BioAssay (NCI)

Tested on: SF-295 CNS
assay-protocol: NCI-60 one-dose screen, 48 h (100 = growth as untreated, 0 = no growth, -100 = all killed)
condition-info: 10 µM unless noted
The panel holds about 83,000 compounds, 20% with a hit somewhere; the sample as a whole holds those more often. The source made the active and inactive calls. The calls were made as follows: active = growth percent below 10; inactive = the rest.
property-name: growth

The examples below pair each entry with its known result.
smiles-string | growth
Cc1c(C(N)=O)sc2c1c(=O)n(Cc1ccccc1)c1nnc(S(C)(=O)=O)n21 | 89.4% (inactive)
COc1ccc(-c2nnc(SCC(=O)Nc3ccc(C(=O)/C=C/c4cc(OC)c(OC)c(OC)c4)cc3)n2-c2ccccc2)cc1OC | -86.2% [100 µM] (active)
CCCNC(=O)Oc1ccc(/C(=C(/C)Cc2ccc(OC)cc2)c2ccc(OCCN3CCCCC3)cc2)cc1 | 102% (inactive)

// growth lookup, compound = Cc1c(O)c(N=Nc2ccc(C(=O)O)c(O)c2)c2ccccc2c1O , result: 116% (inactive)

// growth lookup, compound = O=C(Nc1ccc(-n2cc(-c3ccncc3)c(-c3ccc(Cl)c(O)c3)n2)cc1)c1ccc(Cl)c(C(F)(F)F)c1 , result: -63.4% (active)

// growth lookup, compound = CCCCCCCCC/C(=N\NC(=O)c1ccncc1)c1ccc(O)c(O)c1O , result: 16.3% (inactive)

// growth lookup, compound = c1ccc(Nc2ncc3c(n2)-c2cccn2CC3)cc1 , result: 99.2% (inactive)

// growth lookup, compound = c1cc(C2CCCCC2)ccc1OCCCCCCN1CCNCC1 , result: 73.1% (inactive)

// growth lookup, compound = COc1cc2c(/C=C3\C(=O)Nc4ccc(Br)cc43)c(Cl)n(C)c2cc1C , result: 9.82% (active)

----------
Here the recorded growth is given for each entry.
Tested on: SK-MEL-2 melanoma
assay-protocol: NCI-60 one-dose screen, 48 h (100 = growth as untreated, 0 = no growth, -100 = all killed)
condition-info: 10 µM unless noted
Compounds without any hit were thinned out: in the full panel of roughly 83,000, 20% have a hit. Calls of active or inactive are those of the source. The calls were made as follows: active = growth percent below 10; inactive = the rest.

The examples below pair each entry with its known result.
compound | measured-target | growth
O=C1N/C(=N\c2nnc(-c3ccc(O)cc3)s2)S/C1=C\c1ccccc1O | SK-MEL-2 melanoma | 103% (inactive)
CCCCCCNC(=O)Oc1ccc(/C(=C(/C)Cc2ccc(OC)cc2)c2ccc(OCCN3CCCCC3)cc2)cc1 | SK-MEL-2 melanoma | 101% (inactive)
CC(=O)Nc1nc(C)c(C(=O)NNS(=O)(=O)c2ccccc2)s1 | SK-MEL-2 melanoma | 2.86% (active)
C#CCCCCCCC[C@@H]1OC(=O)[C@H]([C@@H](C)CC)NC(=O)[C@@H]([C@@H](C)CC)NC(=O)CC(=O)[C@@H]1C | SK-MEL-2 melanoma | 107% (inactive)
COc1ccc(Cn2cc3c(c2-c2ccc(OC)cc2)CCc2cnoc2-3)cc1 | SK-MEL-2 melanoma | 31% (inactive)
Cc1nc(NC(=O)NC2CCCCC2)sc1C(=O)NN | SK-MEL-2 melanoma | 21.7% (inactive)
COc1ccc(/C=C(/C(=O)N2CCCCC2)c2cc(OC)c(OC)c(OC)c2)cc1 | SK-MEL-2 melanoma | 28.5% (inactive)
CCS(=O)(=O)N[C@@H]1O[C@H](COC(C)=O)C(OC(C)=O)[C@H](OC(C)=O)C1OC(C)=O (stereo not given in full) | SK-MEL-2 melanoma | 106% (inactive)

// growth lookup, compound = CC(=O)Nc1nc(C)c(C(=O)NN)s1 , result: 24.7% (inactive)

// growth lookup, compound = C=CCC(CCC(CC=C)C(=O)OCC)C(=O)OCC (stereo not given) , result: 106% (inactive)

----------
System: IGROV1 ovarian
assay-protocol: NCI-60 one-dose screen, 48 h (100 = growth as untreated, 0 = no growth, -100 = all killed)
condition-info: 10 µM unless noted
The panel holds about 83,000 compounds, 20% with a hit somewhere; the sample as a whole holds those more often.
property-name: growth (%)
Give your result in % as a bare value.

compound | units-label | quantitative-readout
COc1ccc(C2CC(=O)c3c(O)cc(OC4OC(COC5OC(C)C(O)C(O)C5O)C(O)C(O)C4O)cc3O2)cc1O (stereo not given) | % | 37.7

// growth lookup, compound = COC(=O)C(C(=O)OC)C(Br)C(Br)C(Br)c1ccccc1 (stereo not given) , result: 107

// growth lookup, compound = Nc1cc2c(cc1Br)[nH]c(=O)c1ccccc12 , result: 19

// growth lookup, compound = CCCCCCCCC(=O)Nc1ccc(O)cc1 , result: 93.7

// growth lookup, compound = COc1ccc(-c2nc(SCC(C)C)nc(Nc3ccc([N+](=O)[O-])cc3)c2C#N)cc1 , result: 94.3

// growth lookup, compound = O=C(Nc1ccc(-n2cc(-c3ccncc3)c(-c3ccc(Cl)c(O)c3)n2)cc1)c1ccc(Cl)c(Cl)c1 , result: 67.4

// growth lookup, compound = O=C(O)CS(=O)c1ccc(Cl)cc1 (stereo not given) , result: 115

// growth lookup, compound = COc1ccc2c(c1)/C(=C1/S/C(=N/c3nnc(C)s3)NC1=O)C(=O)N2Cc1ccc(Br)cc1 , result: 40.9

// growth lookup, compound = CC(=O)c1ccc2c(c1)c1ccccc1n2C , result: 87.6

// growth lookup, compound = N#Cc1c2cccnc2c2nnc3cc(Cl)c(Cl)cc3n12 , result: 10.6

----------
Tested on: HCC-2998 colon
assay-protocol: NCI-60 one-dose screen, 48 h
condition-info: 10 µM unless noted
About 83,000 compounds went through this panel and 20% of them were active in at least one assay; those are over-represented in the sample as a whole. Activity calls are given as the source filed them. How the source made its calls: active means growth percent below 10; inactive means the rest.
Hi there, use one of these labels in your reply, thanks! active, inactive

molecule | class
Oc1ccccc1\C=N/N=C/C=C/c1ccccc1 | inactive
COC(=O)c1c[n+]([O-])ccc1OC | inactive
CC(C)OC(=O)Nn1cnc2ccccc21 | inactive
COc1cc2c(c(OC)c1OC)C(=O)CC(c1cccc(C(=O)Nc3cccc(Br)c3)c1)O2 (stereo unspecified) | inactive
COC1=C(OC)C(=O)c2ccccc2C1=O | inactive

Prompt: Returns: the outcome recorded for COc1ccc(/C=C(/C(=O)N2CCCCC2)c2cc(OC)c(OC)c(OC)c2)cc1 in this assay.
Response: inactive

----------
Test system: HCT-116 colon
assay-protocol: NCI-60 one-dose screen, 48 h
condition-info: 10 µM unless noted
The panel holds about 83,000 compounds, 20% with a hit somewhere; the sample as a whole holds those more often. Calls of active or inactive are those of the source. How the source made its calls: active means growth percent below 10; inactive means the rest.
Hi there, use one of these labels in your reply, thanks! active, inactive

molecule | measured-target | class
CC[C@@H](C)/C=C(C)/C=C/C(=O)c1c(O)c(-c2ccc(OC(=O)[C@@]34CC[C@@](C)(C(=O)O3)C4(C)C)cc2)cn(O)c1=O | HCT-116 colon | inactive

Prompt: Returns: the outcome recorded for CCOc1ccc(/C=N/NC(=O)c2cccc3ccccc23)cc1OCC in this assay.
Response: inactive

Prompt: Returns: the outcome recorded for Nc1ccc(S(=O)(=O)Nc2cc(F)cc(F)c2)cc1 in this assay.
Response: inactive

Prompt: Returns: the outcome recorded for COc1cc(/C=C/C(=O)/C=C(/C=C/c2ccc(OC(C)=O)c(OC)c2)OB(F)F)ccc1OC(C)=O in this assay.
Response: active

Prompt: Returns: the outcome recorded for O=C(/C=C/c1cccc(O)c1)c1cccc(-n2cc(-c3ccc(Cl)cc3)[nH]c2=O)c1 in this assay.
Response: active

Prompt: Returns: the outcome recorded for N#Cc1c2ncccc2c2nnc3cc(Cl)c(Cl)cc3n12 in this assay.
Response: inactive

Prompt: Returns: the outcome recorded for CCOC(=O)CNS(=O)(=O)CC(=O)c1ccccc1 in this assay.
Response: inactive

Prompt: Returns: the outcome recorded for Cc1nc2c(nnn2-c2ccccc2)c2nc(-c3ccccc3)oc(=O)c12 in this assay.
Response: inactive

Prompt: Returns: the outcome recorded for O=C1C(=O)c2ccccc2C(O)=C1CCCc1ccc(Oc2ccccc2)cc1 in this assay.
Response: inactive

----------
Here the recorded growth is given for each entry.
System: SF-295 CNS
assay-protocol: NCI-60 one-dose screen, 48 h (100 = growth as untreated, 0 = no growth, -100 = all killed)
condition-info: 10 µM unless noted
This is part of a sample that, as a whole, favours compounds with a hit. Of some 83,000 tested, about 20% had one in any assay.
Give your result in % as a bare value.

The examples below pair each entry with its known result.
molecule | units-label | growth
CC(=O)Nc1ccc(CC#N)cc1Br | % | 105
COC1=CC(c2ccc[nH]2)=N/C1=C\c1[nH]c(C)c(C(=O)CCCCC(=O)NC(C)(C)C)c1C | % | 24

// growth lookup, molecule = N/C(=N\O)c1ccncc1 , result: 94.5

// growth lookup, molecule = Nc1nc2c(c3cnccc13)C(c1ccc(Cl)c(Cl)c1)Cc1cnccc1-2 (configuration not stated) , result: -29.9

// growth lookup, molecule = Cc1c(Cc2ccccc2)c(=O)oc2c(C)c(OCc3n[nH]c(=S)o3)ccc12 , result: 77

// growth lookup, molecule = O=C1CCNC1 , result: 108

// growth lookup, molecule = COC(=O)/C(Br)=C/c1c[nH]c2ccc(Br)cc12 , result: 64
